Origin of the recorded values: the RNAGym collection of RNA variant scans (doi:10.1073/pnas.2313332121)

B1: TPR 5TU (parent)
chain: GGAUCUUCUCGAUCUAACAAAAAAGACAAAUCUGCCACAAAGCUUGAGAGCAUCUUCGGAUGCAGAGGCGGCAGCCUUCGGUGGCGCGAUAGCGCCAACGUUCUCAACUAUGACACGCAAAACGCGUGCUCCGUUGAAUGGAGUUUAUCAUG

Variants of: B1
Assay: polymerase ribozyme fitness, log enrichment relative to wild type (log ratio); higher = more active; in vitro selection for triplet polymerase activity
Variants at the floor of the assay were thinned out.
Property name: polymerase ribozyme fitness (log ratio)
Answers are plain numbers.

Illustrative cases are given below, each with its answer.
{"columns": ["Variant spec", "Test value"],
 "data": [
  ["G141U G143A", -2.79],
  ["G92C C116G", -1.52],
  ["A3C A60G", -0.264],
  ["C93G C96U", -3.61]
]}

Consider the following items and state reported polymerase ribozyme fitness (log ratio) for each.
1. A24U A41C U45A G46C A49C G86A
2. G141A C149G

Result:
1. -3.99
2. -4.13
